# Tested on: A549 NSCLC
# ASSAY TEXT: NCI tumour cell line growth inhibition, 48 h
Below, each entry is listed with its recorded GI50.

Examples with their reported GI50 follow.
[
  {
    "SUBSTANCE SMILES": "[O-]c1ccccc1[C-]=Nc1ccccc1O.[O-]c1ccccc1[C-]=Nc1ccccc1O.[O]=[U]=[O]",
    "REPORTED METRIC": "GI50",
    "VALUE MEASURED": "16200 nM"
  },
  {
    "SUBSTANCE SMILES": "O=C1C2=C(C(=O)c3c(O)ccc(O)c31)N(c1cccnc1)Cc1ccccc1O2",
    "REPORTED METRIC": "GI50",
    "VALUE MEASURED": "2850 nM"
  }
]

// query Which GI50 value is on record for `COc1ccc(-c2cnc(SCC(=O)c3c(C)n(C)n(-c4ccccc4)c3=O)n2-c2ccc(OC)cc2)cc1` ?
// result > 50000 nM

// query Which GI50 value is on record for `Nc1c(C(=O)c2cccc(C(O)(CO)CO)c2)cnn1-c1ccc(F)cc1` ?
// result > 25000 nM

// query Which GI50 value is on record for `CC[C@]12C=CCN3CC[C@@]4(c5ccc(OC)cc5N(C)[C@H]4[C@@](O)(C(=O)OC)[C@@H]1OC(=O)CCCC[P+](c1ccccc1)(c1ccccc1)c1ccccc1)[C@@H]32` ?
// result 1860 nM

// query Which GI50 value is on record for `O=C(Nc1ccc(-n2ccc3c(NC(=O)c4ccccc4)ncnc32)cc1)Nc1ccc(Cl)c(C(F)(F)F)c1` ?
// result 1670 nM
